# experimentalSystem: OAT3 (Homo sapiens)
# Sequence (Q8TCC7 whole entry): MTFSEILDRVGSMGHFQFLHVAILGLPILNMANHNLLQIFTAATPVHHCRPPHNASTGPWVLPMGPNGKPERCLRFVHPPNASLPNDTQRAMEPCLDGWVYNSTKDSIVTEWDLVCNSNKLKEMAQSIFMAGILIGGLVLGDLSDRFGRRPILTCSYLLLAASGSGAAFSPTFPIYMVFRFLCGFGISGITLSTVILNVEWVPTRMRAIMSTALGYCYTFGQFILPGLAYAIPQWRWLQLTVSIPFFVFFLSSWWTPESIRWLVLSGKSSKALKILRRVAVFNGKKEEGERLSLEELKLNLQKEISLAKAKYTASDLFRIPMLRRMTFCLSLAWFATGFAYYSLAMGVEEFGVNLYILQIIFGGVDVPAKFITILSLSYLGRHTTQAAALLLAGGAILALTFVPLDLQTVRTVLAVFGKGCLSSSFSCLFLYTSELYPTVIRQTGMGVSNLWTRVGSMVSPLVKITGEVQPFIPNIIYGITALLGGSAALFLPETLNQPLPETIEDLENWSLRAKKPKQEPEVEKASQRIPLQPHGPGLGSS
# methodSummary: in vitro
# conditions: HEK293 cells transiently expressing OAT3, probe catalposide 10 μM
quantityKind: inhibition at 10 min, 10 μM

INSERT INTO results (smilesnotation, experimentalsystem, valueobserved) VALUES
  ('CCCN(CCC)S(=O)(=O)c1ccc(C(=O)O)cc1', 'OAT3 (Homo sapiens)', '84.5%');

Taken from paper PMC4310350.
